Assay: Further oral pharmacokinetic study in female Balb/c mice, 5, 10 and 20 mg/kg
Conditions: mouse, plasma, 10 mg/kg, t½, Mean, 10 mg/kg single oral dose
EXPERIMENTAL_READOUT: half-life (h)
# output: bare number, implied unit h

Dear colleague, I am looking for the recorded half-life of the following molecule: CC[C@H]1OC(=O)[C@@](C)(F)C(=O)[C@H](C)[C@@H](O[C@@H]2O[C@H](C)C[C@H](N(C)C)[C@H]2O)[C@](C)(OC)C[C@@H](C)C(=O)[C@H](C)[C@H]2N(CCCCn3cc(-c4cccc(N)c4)nn3)C(=O)O[C@]12C [Form II, solithromycin]
1.42

---

Experiment: physchem
Conditions: pH 6.03, saline or isotonic, thermodynamic from solid
EXPERIMENTAL_READOUT: solubility at 6 h (µg/mL)
Write the value in µg/mL as a bare number.

Fill blank: measured solubility at 6 h of the compound CC[C@H]1OC(=O)[C@@](C)(F)C(=O)[C@H](C)[C@@H](O[C@@H]2O[C@H](C)C[C@H](N(C)C)[C@H]2O)[C@](C)(OC)C[C@@H](C)C(=O)[C@H](C)[C@H]2N(CCCCn3cc(-c4cccc(N)c4)nn3)C(=O)O[C@]12C [Form I, solithromycin] is ____.
1410

---

Test: Further oral pharmacokinetic study in female Balb/c mice, 5, 10 and 20 mg/kg
Details: mouse, plasma, 10 mg/kg, AUC 0-24, Median, 10 mg/kg single oral dose
EXPERIMENTAL_READOUT: AUC(0-t) (ng·h/mL)
Value expressed in ng·h/mL; do not type the unit.

Would you mind telling me what AUC(0-t) value was observed for CC[C@H]1OC(=O)[C@@](C)(F)C(=O)[C@H](C)[C@@H](O[C@@H]2O[C@H](C)C[C@H](N(C)C)[C@H]2O)[C@](C)(OC)C[C@@H](C)C(=O)[C@H](C)[C@H]2N(CCCCn3cc(-c4cccc(N)c4)nn3)C(=O)O[C@]12C [Form II, solithromycin] ?
7590

---

Assay: in vivo
Details: male, Balb/c, mouse, po, 20 mg/kg
EXPERIMENTAL_READOUT: concentration at 2 h (ng/mL)
State the answer as a number, implicitly in ng/mL.

Return reported concentration at 2 h; argument: CC[C@H]1OC(=O)[C@@](C)(F)C(=O)[C@H](C)[C@@H](O[C@@H]2O[C@H](C)C[C@H](N(C)C)[C@H]2O)[C@](C)(OC)C[C@@H](C)C(=O)[C@H](C)[C@H]2N(CCCCn3cc(-c4cccc(N)c4)nn3)C(=O)O[C@]12C [Form I, solithromycin]
6400

---

Assay: in vivo
Details: female, Balb/c, mouse, po, 20 mg/kg
EXPERIMENTAL_READOUT: concentration at 0.5 h (ng/mL)
Your answer is read as ng/mL, so omit the unit and give the number.

Looking for the measured concentration at 0.5 h of CC[C@H]1OC(=O)[C@@](C)(F)C(=O)[C@H](C)[C@@H](O[C@@H]2O[C@H](C)C[C@H](N(C)C)[C@H]2O)[C@](C)(OC)C[C@@H](C)C(=O)[C@H](C)[C@H]2N(CCCCn3cc(-c4cccc(N)c4)nn3)C(=O)O[C@]12C [Form I, solithromycin] , can you help?
13600

---

Assay: Further oral pharmacokinetic study in female Balb/c mice, 5, 10 and 20 mg/kg
Details: mouse, plasma, 10 mg/kg, Cmax, Median, 10 mg/kg single oral dose
EXPERIMENTAL_READOUT: Cmax (µg/mL)
Field: numeric (µg/mL). Do not append units.

# lookup: Cmax of CC[C@H]1OC(=O)[C@@](C)(F)C(=O)[C@H](C)[C@@H](O[C@@H]2O[C@H](C)C[C@H](N(C)C)[C@H]2O)[C@](C)(OC)C[C@@H](C)C(=O)[C@H](C)[C@H]2N(CCCCn3cc(-c4cccc(N)c4)nn3)C(=O)O[C@]12C [Form II, solithromycin]
2.42

---

Test: in vivo
Settings: male, Balb/c, mouse, po, 100 mg/kg
EXPERIMENTAL_READOUT: concentration at 0 h (ng/mL)
Reply with just the number (in ng/mL).

Suppose we examine the compound CC[C@H]1OC(=O)[C@@](C)(F)C(=O)[C@H](C)[C@@H](O[C@@H]2O[C@H](C)C[C@H](N(C)C)[C@H]2O)[C@](C)(OC)C[C@@H](C)C(=O)[C@H](C)[C@H]2N(CCCCn3cc(-c4cccc(N)c4)nn3)C(=O)O[C@]12C [Form I, solithromycin] ; what concentration at 0 h value has been reported?
0

---

Assay: physchem
Conditions: 26 °C, pH 4, aqueous buffer, thermodynamic from solid
EXPERIMENTAL_READOUT: solubility at 6 h (µg/mL)
Express your answer in µg/mL, writing the number without its unit.

Consider the molecule shown here: CC[C@H]1OC(=O)[C@@](C)(F)C(=O)[C@H](C)[C@@H](O[C@@H]2O[C@H](C)C[C@H](N(C)C)[C@H]2O)[C@](C)(OC)C[C@@H](C)C(=O)[C@H](C)[C@H]2N(CCCCn3cc(-c4cccc(N)c4)nn3)C(=O)O[C@]12C [Form I, solithromycin] What is its recorded solubility at 6 h?
4660

---

Assay: in vivo
Conditions: male, Balb/c, mouse, po, 20 mg/kg
EXPERIMENTAL_READOUT: concentration at 4 h (ng/mL)
Answer with a number only, understood to be in ng/mL.

GET /values?readout=concentration at 4 h&item= CC[C@H]1OC(=O)[C@@](C)(F)C(=O)[C@H](C)[C@@H](O[C@@H]2O[C@H](C)C[C@H](N(C)C)[C@H]2O)[C@](C)(OC)C[C@@H](C)C(=O)[C@H](C)[C@H]2N(CCCCn3cc(-c4cccc(N)c4)nn3)C(=O)O[C@]12C [Form I, solithromycin]
5900

---

Assay: Oral pharmacokinetics in Balb/c mice, single dose 20 or 100 mg/kg
Conditions: male, Balb/c, mouse, plasma, po, 100 mg/kg
EXPERIMENTAL_READOUT: concentration at 0.5 h (ng/mL)
Form entry: value (ng/mL) — number only.

Given CC[C@H]1OC(=O)[C@@](C)(F)C(=O)[C@H](C)[C@@H](O[C@@H]2O[C@H](C)C[C@H](N(C)C)[C@H]2O)[C@](C)(OC)C[C@@H](C)C(=O)[C@H](C)[C@H]2N(CCCCn3cc(-c4cccc(N)c4)nn3)C(=O)O[C@]12C [Form II, solithromycin] , state its recorded concentration at 0.5 h.
6900

---

Assay: Oral pharmacokinetics in Balb/c mice, single dose 20 or 100 mg/kg
Conditions: female, Balb/c, mouse, plasma, po, 20 mg/kg
EXPERIMENTAL_READOUT: AUC(0-t) (ng·h/mL)
Value expressed in ng·h/mL; do not type the unit.

Please report the recorded AUC(0-t) for CC[C@H]1OC(=O)[C@@](C)(F)C(=O)[C@H](C)[C@@H](O[C@@H]2O[C@H](C)C[C@H](N(C)C)[C@H]2O)[C@](C)(OC)C[C@@H](C)C(=O)[C@H](C)[C@H]2N(CCCCn3cc(-c4cccc(N)c4)nn3)C(=O)O[C@]12C [Form II, solithromycin] .
31600

---

Experiment: Oral pharmacokinetics in Balb/c mice, single dose 20 or 100 mg/kg
Conditions: male, Balb/c, mouse, plasma, po, 100 mg/kg
EXPERIMENTAL_READOUT: AUC(0-t) (ng·h/mL)
Use ng·h/mL as the unit, but write only the number.

Need AUC(0-t) of CC[C@H]1OC(=O)[C@@](C)(F)C(=O)[C@H](C)[C@@H](O[C@@H]2O[C@H](C)C[C@H](N(C)C)[C@H]2O)[C@](C)(OC)C[C@@H](C)C(=O)[C@H](C)[C@H]2N(CCCCn3cc(-c4cccc(N)c4)nn3)C(=O)O[C@]12C [Form II, solithromycin] , thanks.
66000

---

Experiment: Oral pharmacokinetics in Balb/c mice, single dose 20 or 100 mg/kg
Conditions: female, Balb/c, mouse, plasma, po, 20 mg/kg
EXPERIMENTAL_READOUT: AUC(0-inf)
Answers without a unit are incomplete; give the number and then its unit.

Fill blank: measured AUC(0-inf) of the compound CC[C@H]1OC(=O)[C@@](C)(F)C(=O)[C@H](C)[C@@H](O[C@@H]2O[C@H](C)C[C@H](N(C)C)[C@H]2O)[C@](C)(OC)C[C@@H](C)C(=O)[C@H](C)[C@H]2N(CCCCn3cc(-c4cccc(N)c4)nn3)C(=O)O[C@]12C [Form II, solithromycin] is ____.
36000 ng·h/mL

---

Experiment: in vivo
Settings: female, Balb/c, mouse, po, 20 mg/kg, AUC 0-24
EXPERIMENTAL_READOUT: AUC(0-t) (ng·h/mL)
Give just the number in ng·h/mL; leave the unit off.

Requested field: AUC(0-t). Item: CC[C@H]1OC(=O)[C@@](C)(F)C(=O)[C@H](C)[C@@H](O[C@@H]2O[C@H](C)C[C@H](N(C)C)[C@H]2O)[C@](C)(OC)C[C@@H](C)C(=O)[C@H](C)[C@H]2N(CCCCn3cc(-c4cccc(N)c4)nn3)C(=O)O[C@]12C [Form I, solithromycin]
26700
